system name: fungal (fACC2) (UniProt Q00955)
Sequence (Q00955 whole entry): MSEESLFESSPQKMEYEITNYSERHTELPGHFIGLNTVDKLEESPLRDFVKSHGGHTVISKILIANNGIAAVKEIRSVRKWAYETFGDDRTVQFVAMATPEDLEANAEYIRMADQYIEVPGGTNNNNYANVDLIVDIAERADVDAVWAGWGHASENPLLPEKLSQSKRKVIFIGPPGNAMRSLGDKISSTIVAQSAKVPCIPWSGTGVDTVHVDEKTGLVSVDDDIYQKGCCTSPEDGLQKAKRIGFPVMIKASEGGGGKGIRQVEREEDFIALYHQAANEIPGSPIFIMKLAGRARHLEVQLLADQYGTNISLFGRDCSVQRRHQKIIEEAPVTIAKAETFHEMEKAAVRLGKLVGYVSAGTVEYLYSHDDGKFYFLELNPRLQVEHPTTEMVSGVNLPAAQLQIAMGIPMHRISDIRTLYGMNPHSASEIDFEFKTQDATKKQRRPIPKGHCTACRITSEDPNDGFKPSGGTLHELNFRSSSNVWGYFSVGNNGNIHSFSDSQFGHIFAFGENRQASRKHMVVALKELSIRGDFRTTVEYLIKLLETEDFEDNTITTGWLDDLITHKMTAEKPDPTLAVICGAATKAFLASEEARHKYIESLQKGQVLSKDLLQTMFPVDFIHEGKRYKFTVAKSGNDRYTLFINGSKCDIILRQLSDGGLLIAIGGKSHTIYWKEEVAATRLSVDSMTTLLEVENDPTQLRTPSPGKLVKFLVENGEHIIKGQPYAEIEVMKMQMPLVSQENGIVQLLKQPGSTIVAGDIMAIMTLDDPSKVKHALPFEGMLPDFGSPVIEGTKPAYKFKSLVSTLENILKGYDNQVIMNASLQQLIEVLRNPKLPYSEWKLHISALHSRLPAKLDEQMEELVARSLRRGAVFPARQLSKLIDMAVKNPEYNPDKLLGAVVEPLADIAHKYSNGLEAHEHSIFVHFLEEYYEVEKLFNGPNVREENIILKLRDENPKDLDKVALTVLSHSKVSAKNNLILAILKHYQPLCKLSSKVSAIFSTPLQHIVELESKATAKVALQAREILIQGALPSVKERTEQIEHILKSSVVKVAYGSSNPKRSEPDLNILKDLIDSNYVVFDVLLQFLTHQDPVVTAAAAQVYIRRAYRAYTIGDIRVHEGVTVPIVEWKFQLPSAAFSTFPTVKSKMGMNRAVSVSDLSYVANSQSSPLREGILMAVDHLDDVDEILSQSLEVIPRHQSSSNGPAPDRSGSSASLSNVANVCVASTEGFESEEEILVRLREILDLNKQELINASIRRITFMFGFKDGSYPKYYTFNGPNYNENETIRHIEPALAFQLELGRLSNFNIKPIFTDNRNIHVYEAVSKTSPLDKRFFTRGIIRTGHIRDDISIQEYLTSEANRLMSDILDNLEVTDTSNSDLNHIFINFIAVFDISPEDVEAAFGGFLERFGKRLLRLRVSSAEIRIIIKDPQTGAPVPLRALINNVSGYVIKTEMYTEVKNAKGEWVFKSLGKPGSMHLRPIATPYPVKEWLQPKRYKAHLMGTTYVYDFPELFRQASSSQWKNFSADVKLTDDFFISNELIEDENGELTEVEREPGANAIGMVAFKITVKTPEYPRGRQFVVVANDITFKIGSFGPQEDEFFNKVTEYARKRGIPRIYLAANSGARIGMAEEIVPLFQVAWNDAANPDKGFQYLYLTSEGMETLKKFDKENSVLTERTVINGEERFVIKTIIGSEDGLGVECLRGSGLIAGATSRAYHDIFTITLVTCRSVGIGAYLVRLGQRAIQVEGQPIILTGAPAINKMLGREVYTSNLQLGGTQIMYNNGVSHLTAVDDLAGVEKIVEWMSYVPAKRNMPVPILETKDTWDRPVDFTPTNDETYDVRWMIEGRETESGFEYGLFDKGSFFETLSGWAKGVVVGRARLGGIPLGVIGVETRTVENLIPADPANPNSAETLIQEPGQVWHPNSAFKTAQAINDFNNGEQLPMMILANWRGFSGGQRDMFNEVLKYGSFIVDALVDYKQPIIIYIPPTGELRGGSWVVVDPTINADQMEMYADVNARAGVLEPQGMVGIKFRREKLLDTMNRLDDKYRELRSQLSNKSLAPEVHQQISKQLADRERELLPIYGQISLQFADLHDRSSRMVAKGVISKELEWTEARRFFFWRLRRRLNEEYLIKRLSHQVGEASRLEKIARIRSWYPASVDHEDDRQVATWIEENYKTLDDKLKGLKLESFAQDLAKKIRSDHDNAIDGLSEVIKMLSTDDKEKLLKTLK
condition: read-out: fACC2 (in vitro ACC2 Inhibition Assay, IC50); Table 2a; ADP-Glo, 5 nM ACC2, 20 μM ATP, 20 μM acetyl-CoA
pIC50: −log10 of the molar value.
outcome measure: pIC50

> print(dat)
                               query.smiles  outcome.measure    meas.value
1  CCOC(=O)C(C)(C)n1c(=O)c2c(C)c(-n3nccn3)sc2n(C[C@H](OCCO)c2cc(F)ccc2OC)c1=O            pIC50  8.30 to 9.00
2  COc1ccc(F)cc1[C@H](Cn1c(=O)n([C@@H](C)C(=O)N(C)C(C)C)c(=O)c2c(C)c(-n3nccn3)sc21)O[C@H]1CC[C@@H](O)CC1            pIC50  9.00 to 9.40
3  CCc1ccc(F)cc1[C@H](Cn1c(=O)n(C(C)(C)C(=O)NC(C)C)c(=O)c2c(C)c(-n3nccn3)sc21)OCCOC            pIC50  8.30 to 9.00
4  COc1ccc(F)cc1[C@H](Cn1c(=O)n(C(C)(C)C(N)=O)c(=O)c2c(C)c(-n3nccn3)sc21)OCCC(=O)C(F)(F)F            pIC50  8.30 to 9.00
5  COc1ccc(F)cc1[C@H](Cn1c(=O)n(C(C)(C)C(=O)NC(C)C)c(=O)c2c(C)c(-n3nccn3)sc21)OC[C@H](C)C#N            pIC50  9.00 to 9.40
6  COc1ccc(F)cc1[C@H](Cn1c(=O)n(C(C)(C)C(=O)N2CC=CC2)c(=O)c2c(C)c(-n3nccn3)sc21)OC1CCOCC1            pIC50  8.30 to 9.00
